System: U2OS
Test: Multiplex assay against U2OS
Type: toxicity, cell-based
Details: human, 12 h, 1 µM, compound concentration 1 uM, replicate 2
# if value of Population Tubulin-Different-Phenotype (%) reaches 20%, tag rule met; if it stays below, tag rule not met

# bool: Population Tubulin-Different-Phenotype (%) of NC(=O)Nc1cc(-c2cccc(F)c2)sc1C(=O)N[C@H]1CCCNC1 >= 20%
rule met

# bool: Population Tubulin-Different-Phenotype (%) of CC[C@H](C)C(=O)O[C@H]1C[C@@H](C)C=C2C=C[C@H](C)[C@H](CC[C@@H]3C[C@@H](O)CC(=O)O3)[C@H]21 >= 20%
rule not met

# bool: Population Tubulin-Different-Phenotype (%) of CN(C)C(=O)/C(C#N)=C/c1ccc(-c2nc3cnc4[nH]ccc4c3n2C2CCCCC2)o1 >= 20%
rule met

# bool: Population Tubulin-Different-Phenotype (%) of Cc1c(-c2ccc(O)cc2)n(Cc2ccc(OCCN3CCCCCC3)cc2)c2ccc(O)cc12 >= 20%
rule not met

# bool: Population Tubulin-Different-Phenotype (%) of CN(C)C(=O)N[C@H]1CC[C@H](CCN2CCN(c3cccc(Cl)c3Cl)CC2)CC1.Cl [CARIPRAZINE HYDROCHLORIDE] >= 20%
rule met

# bool: Population Tubulin-Different-Phenotype (%) of Cn1cc(-c2[nH]c3cc(NC(=O)[C@H](N)C4CCCCC4)cc4c3c2C=NNC4=O)cn1 >= 20%
rule not met

# bool: Population Tubulin-Different-Phenotype (%) of Cc1csc2c(N[C@@H](C)CN3CCN(S(=O)(=O)c4ccc(Cl)c(Cl)c4)CC3)ncnc12 >= 20%
rule met

# bool: Population Tubulin-Different-Phenotype (%) of C=CC(=O)Nc1cccc(C(=O)Nc2ccc(Nc3cc(-c4[nH]c(SC)nc4C)ccn3)cc2)c1 >= 20%
rule met

# bool: Population Tubulin-Different-Phenotype (%) of CC(C)(O)CNc1ncc(-c2ccnc(Nc3ccnc(Cl)c3)n2)c(CC2CC2)n1 >= 20%
rule not met

# bool: Population Tubulin-Different-Phenotype (%) of CCN(CC)CCCCNc1ncc2cc(-c3cc(OC)cc(OC)c3)c(NC(=O)NC(C)(C)C)nc2n1 >= 20%
rule met

# bool: Population Tubulin-Different-Phenotype (%) of c1cn2cc(-c3ccc4cn[nH]c4c3)nc(Nc3ccc(N4CCOCC4)cc3)c2n1 >= 20%
rule met

# bool: Population Tubulin-Different-Phenotype (%) of CN1CCC[C@@H]1CCO[C@](C)(c1ccccc1)c1ccc(Cl)cc1.O=C(O)/C=C/C(=O)O [CLEMASTINE FUMARATE] >= 20%
rule not met

====

System: Fibroblast
Test: Multiplex assay against human fibroblast
Type: toxicity, cell-based
Settings: 48 h, 10 µM, compound concentration 10 uM, replicate 2
# if value of Population Tubulin-Different-Phenotype (%) reaches 70%, tag label 1; if it stays below, tag label 0

# bool: Population Tubulin-Different-Phenotype (%) of C[C@@H](NCCCc1cccc(C(F)(F)F)c1)c1cccc2ccccc12.Cl [CINACALCET HYDROCHLORIDE] >= 70%
label 0

# bool: Population Tubulin-Different-Phenotype (%) of Cc1c(-c2ccc(O)cc2)n(Cc2ccc(OCCN3CCCCCC3)cc2)c2ccc(O)cc12 [BAZEDOXIFENE] >= 70%
label 0

# bool: Population Tubulin-Different-Phenotype (%) of CN(C)CC#Cc1ccc(OCCCc2sc(N3CCc4cccc(C(=O)Nc5nc6ccccc6s5)c4C3)nc2C(=O)O)c(F)c1 [A-1155463] >= 70%
label 1

# bool: Population Tubulin-Different-Phenotype (%) of CNc1nc(NCc2ccc(NS(C)(=O)=O)cc2Cl)cc(-c2ccccn2)n1 >= 70%
label 1

# bool: Population Tubulin-Different-Phenotype (%) of O=C1NCN(c2ccccc2)C12CCN(CCCOc1ccc(F)cc1)CC2 [SPIRAMIDE] >= 70%
label 0

# bool: Population Tubulin-Different-Phenotype (%) of C=CC(=O)Nc1cccc(C(=O)Nc2ccc(Nc3cc(-c4[nH]c(SC)nc4C)ccn3)cc2)c1 >= 70%
label 0

# bool: Population Tubulin-Different-Phenotype (%) of NC(=O)Nc1cc(-c2cccc(F)c2)sc1C(=O)N[C@H]1CCCNC1 [AZD-7762] >= 70%
label 0

# bool: Population Tubulin-Different-Phenotype (%) of C[C@@]1(C(=O)Nc2ccc(F)nc2)CCCN1c1nc(Nc2cc(C3CC3)n[nH]2)c2cccn2n1 [BMS-754807] >= 70%
label 1

# bool: Population Tubulin-Different-Phenotype (%) of c1cn2cc(-c3ccc4cn[nH]c4c3)nc(Nc3ccc(N4CCOCC4)cc3)c2n1 [ENTOSPLETINIB] >= 70%
label 0

# bool: Population Tubulin-Different-Phenotype (%) of CN(C)C(=O)/C(C#N)=C/c1ccc(-c2nc3cnc4[nH]ccc4c3n2C2CCCCC2)o1 >= 70%
label 0

# bool: Population Tubulin-Different-Phenotype (%) of CN1CCCC(n2nc(Cc3ccc(Cl)cc3)c3ccccc3c2=O)CC1.Cl (configuration not stated) [AZELASTINE HYDROCHLORIDE] >= 70%
label 1

# bool: Population Tubulin-Different-Phenotype (%) of CC(C)(O)CNc1ncc(-c2ccnc(Nc3ccnc(Cl)c3)n2)c(CC2CC2)n1 >= 70%
label 1

# bool: Population Tubulin-Different-Phenotype (%) of CNCc1ccccc1-c1csc([C@H](C)Nc2nc(C)nc3cc(OC)c(OC)cc23)c1 [BAY-294] >= 70%
label 0

# bool: Population Tubulin-Different-Phenotype (%) of COc1cc2nccc(Oc3ccc(NC(=O)Nc4cc(C)on4)c(Cl)c3)c2cc1OC.O >= 70%
label 1

# bool: Population Tubulin-Different-Phenotype (%) of COc1ncc(-c2ccc3nccc(-c4ccnnc4)c3c2)cc1NS(=O)(=O)c1ccc(F)cc1F [OMIPALISIB] >= 70%
label 1

# bool: Population Tubulin-Different-Phenotype (%) of CN1CCC[C@@H]1CCO[C@](C)(c1ccccc1)c1ccc(Cl)cc1.O=C(O)/C=C/C(=O)O [CLEMASTINE FUMARATE] >= 70%
label 1

====

System: U2OS
Assay: Incucyte cell viability with U2OS; note: filed as whole numbers so only -1 and 0 and 1 occur
Format: toxicity, cell-based
Conditions: human, 12 h, 10 µM, compound concentration 10 uM, replicate number 1, timepoint 12 hours
Where a SMILES comes first, the peptide text is derived from it. [ ]: non-standard residue; d: D form. Arg(Me) = CNC(=N)NCCC[C@H](N)C(=O)O; d4Pal = N[C@H](Cc1ccncc1)C(=O)O; azaGly = NNC(=O)O
property: Growth Rate
Respond using a number only.

Please look up its Growth Rate: NC(=O)c1ccc(NC(=O)NCc2cccc(C(=O)Nc3ccc4c(c3)CNCC4)c2)cc1
1

Please look up its Growth Rate: CN(C)CC#Cc1ccc(OCCCc2sc(N3CCc4cccc(C(=O)Nc5nc6ccccc6s5)c4C3)nc2C(=O)O)c(F)c1
0

Please look up its Growth Rate: CN(C)C(=O)N[C@H]1CC[C@H](CCN2CCN(c3cccc(Cl)c3Cl)CC2)CC1.Cl [CARIPRAZINE HYDROCHLORIDE]
1

Please look up its Growth Rate: CN(C)[C@@H]1CCN(c2cc(-c3ccccc3)nc3ccnn23)C1 [(R)-ZINC-3573]
1

Please look up its Growth Rate: CCCc1nc2c(C)cc(-c3nc4ccccc4n3C)cc2n1Cc1ccc(-c2ccccc2C(=O)O)cc1
1

Please look up its Growth Rate: CNC(=N)NCCC[C@H](NC(=O)[C@H](CC(C)C)NC(=O)NNC(=O)[C@H](Cc1ccccc1)NC(=O)[C@H](CO)NC(=O)[C@H](CC(N)=O)NC(=O)[C@@H](Cc1ccncc1)NC(=O)[C@H](N)Cc1ccc(O)cc1)C(=O)N[C@@H](Cc1ccccc1)C(N)=O [KISS1-305] (H-[dY][d4Pal]NSF[azaGly]L[Arg(Me)]F-NH2)
1

Please look up its Growth Rate: Cc1nc(C2CCN(C(=O)c3ccc(OC(F)(F)F)cc3N)CC2)c2ncc(N3CCN(C)CC3)cc2n1
0

Please look up its Growth Rate: Cc1c(C(=O)NC2CCCCC2)sc2nc3ccc(N)cc3n12.Cl
1

Please look up its Growth Rate: OC1(c2ccc(Cl)cc2)CCN(Cc2c[nH]c3ccccc23)CC1
0

Please look up its Growth Rate: COc1cc2nccc(Oc3ccc(NC(=O)Nc4cc(C)on4)c(Cl)c3)c2cc1OC.O
0

Please look up its Growth Rate: O=C(NCc1ncc(C(F)(F)F)cc1Cl)c1ccc2c(c1)C1(CCS(=O)(=O)CC1)[C@H](C1CC1)N2S(=O)(=O)c1ccc(F)cc1
0

Please look up its Growth Rate: Clc1cccc(-c2nnnn2Cc2cccnc2)c1Cl
0

Please look up its Growth Rate: CNc1nc(NCc2ccc(NS(C)(=O)=O)cc2Cl)cc(-c2ccccn2)n1
0

Please look up its Growth Rate: CCOc1cc(N2CCC(O)CC2)ccc1Nc1ncc2c(n1)N(C)c1ccccc1C(=O)N2C
1

Please look up its Growth Rate: COc1cc(-n2cnc3cc(-c4ccc(Cl)cc4)sc3c2=O)ccc1OCCN1CCCC1
0

Please look up its Growth Rate: Cc1c(-c2ccc(O)cc2)n(Cc2ccc(OCCN3CCCCCC3)cc2)c2ccc(O)cc12
1
